molecular target: NPA2 (influenza A virus A/WSN/1933(H1N1), UniProt A4U6V6 1-489); test: ELISA on recombinant NP
Sequence (A4U6V6 1-489 limits assumed): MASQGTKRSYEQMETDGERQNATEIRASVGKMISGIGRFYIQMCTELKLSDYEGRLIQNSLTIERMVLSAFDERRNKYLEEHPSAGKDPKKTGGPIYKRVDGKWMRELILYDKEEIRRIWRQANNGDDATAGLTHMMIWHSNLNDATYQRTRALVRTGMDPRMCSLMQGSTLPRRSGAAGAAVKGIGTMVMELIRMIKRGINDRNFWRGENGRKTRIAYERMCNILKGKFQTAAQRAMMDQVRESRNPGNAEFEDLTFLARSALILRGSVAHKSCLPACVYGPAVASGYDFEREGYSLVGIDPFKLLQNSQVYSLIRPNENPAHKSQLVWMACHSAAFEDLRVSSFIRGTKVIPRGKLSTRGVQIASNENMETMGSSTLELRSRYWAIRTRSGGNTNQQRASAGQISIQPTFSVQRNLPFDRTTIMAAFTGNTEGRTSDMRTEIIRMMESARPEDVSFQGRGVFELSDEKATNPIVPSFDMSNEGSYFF
MEASURED_QUANTITY: pEC50
Please report pEC50 as the negative decimal logarithm of the molar concentration, giving only the number.

Which measured pEC50 value corresponds to NP8 (antibody, V domains shown) VH: EVQLVESGGGLVQPGGSLRLSCAASGFTINSFGIHWVRQAPGKGLEWVAGIGPFGGSTFYADSVKGRFTISADTSKNTAYLQMNSLRAEDTAVYYCARGFYWFDYWGQGTLVTVSS VL: DIQMTQSPSSLSASVGDRVTITCRASQDVDDSVAWYQQKPGKAPKLLIYWTRYLYSGVPSRFSGSGSGTDFTLTISSLQPEDFATYYCQQGYNYPLTFGQGTKVEIKR ?
8.67

Here is the next binder: NP5 (antibody, V domains shown) VH: EVQLVESGGGLVQPGGSLRLSCAASGFTISNGSIHWVRQAPGKGLEWVAGIWPSGGSTSYADSVKGRFTISADTINNSAYLQMNSLRAEDTAVYYCARWNYWGQGTLVTVSS VL: DIQMTQSPSSLSASVGDRVTITCRASQDVGWSVAWYQQKPGKAPKLLIYGSRWLYSGVPSRFSGSGSGTDFTLTISSLQPEDFATYYCQQGYNGPLTFGQGTKVEIKR
9.89

Here is the next binder: NP21 (antibody, V domains shown) VH: EVQLVESGGGLVQPGGSLRLSCAASGFTINGYGIHWVRQAPGKGLEWVAGIWPYGGSTFYADSVKGRFTISADTSKNTAYLQMNSLRAEDTAVYYCARFYNNHGGIMDYWGQGTLVTVSS VL: DIQMTQSPSSLSASVGDRVTITCRASQDVYFYVAWYQQKPGKAPKLLIYGSRWLYSGVPSRFSGSGSGTDFTLTISSLQPEDFATYYCQQYSNFPVTFGQGTKVEIKR
7.54
